# assayMethodText: Acute toxicity, i.v., up-and-down method
# conditionSet: mouse, in vivo, iv
// classify: if (LD50 < 80 mg/kg) MET else NOT MET

- compound: "CCCOCCOC(=O)C1=C(C)NC(COC(N)=O)=C(C(=O)OCC)C1c1ccccc1[N+](=O)[O-] (centres unmarked)"
  discreteLabel: "NOT MET"
- compound: "CCOC(=O)C1=C(COC(N)=O)NC(C)=C(C(=O)OC(C)C)C1c1cccc([N+](=O)[O-])c1 (centres unmarked)"
  discreteLabel: "MET"
- compound: "CCOC(=O)C1=C(C)NC(COC(=O)NC)=C(C(=O)OCC)C1c1ccccc1[N+](=O)[O-] (centres unmarked)"
  discreteLabel: "MET"

Moving on to the next compound.
Problem: Identify whether the compound COC(=O)C1=C(COC(N)=O)NC(C)=C(C(=O)OCCN2CCN(C)CC2)C1c1cccc([N+](=O)[O-])c1 (centres unmarked) records LD50 below 80 mg/kg.
Solution: MET
